system-under-test: SARS-COV-2 3CLpro/Mpro protease (Severe acute respiratory syndrome coronavirus 2 (2019-nCoV) (SARS-CoV-2), UniProt P0DTD1)
procedure-text: Inhibitory effect on SARS-COV-2 3CLpro/Mpro protease by fluorescence resonance energy transfer
Type: biochemical
test-settings: activity intervals A-D, read-out: IC50 (nM), Inhibition on SARS-CoV-2 3CLpro/Mpro protease
# IC50 per entry

{"molecule": "O=C(c1cncc(Br)c1)N1C[C@H](Nc2c(C(=O)N3CCC(F)(F)CC3)cc(Br)cc2[N+](=O)[O-])C(F)(F)C1 [Example 183]", "IC50": "10 to 50 nM"}
{"molecule": "O=C(c1cc(Br)cc([N+](=O)[O-])c1N[C@@H]1CCN(C(=O)c2cncc3ccccc23)C1)N1CCCCC1 [Example 12]", "IC50": "10 to 50 nM"}
{"molecule": "C=C[C@@H]1CN(C(=O)c2cc(Br)cc([N+](=O)[O-])c2N[C@@H]2CCCN(C(=O)c3cncc(NC)c3)C2)CCO1 [Example 344]", "IC50": "10 to 50 nM"}
